- Target entity: Bile salt export pump (Homo sapiens, UniProt O95342)
- Measurement protocol: Inhibition of human BSEP expressed in fall armyworm sf9 cell plasma membrane vesicles assessed as reduction in vesicle-associated [3H]-taurocholate transport preincubated for 10 mins prior to ATP addition measured after 15 mins in presence of [3H]-taurocholate by topcount based membrane vesicle transport assay
- Format: ADME
pIC50: −log10 of the molar value.
Metric name: pIC50

1. CCN(CC)CCNC(=O)c1ccc(NC(C)=O)cc1 [ACECAINIDE]	< 3.87
2. COc1cc2c3cc1Oc1cc(ccc1O)C[C@@H]1c4c(cc(OC)c(O)c4Oc4ccc(cc4)C[C@@H]3N(C)CC2)CC[N+]1(C)C [TUBOCURARINE]	< 3.87
3. C=CCc1ccccc1OCC(O)CNC(C)C (stereo not drawn) [ALPRENOLOL]	< 3.87
4. NS(=O)(=O)Cc1noc2ccccc12 [ZONISAMIDE]	< 3.87
5. NCC[C@H](O)C(=O)N[C@@H]1C[C@H](N)[C@@H](O[C@H]2O[C@H](CN)[C@@H](O)[C@H](O)[C@H]2O)[C@H](O)[C@H]1O[C@H]1O[C@H](CO)[C@@H](O)[C@H](N)[C@H]1O [AMIKACIN]	< 3.87
6. Cc1ccc(C(=O)Nc2ccc(S(=O)(=O)O)c3cc(S(=O)(=O)O)cc(S(=O)(=O)O)c23)cc1NC(=O)c1cccc(NC(=O)Nc2cccc(C(=O)Nc3cc(C(=O)Nc4ccc(S(=O)(=O)O)c5cc(S(=O)(=O)O)cc(S(=O)(=O)O)c45)ccc3C)c2)c1 [SURAMIN]	< 3.87
7. C(=C\c1ccccc1)/CN1CCN(C(c2ccccc2)c2ccccc2)CC1 [CINNARIZINE]	4.80
8. CCOC(=O)Nc1ccc(NCc2ccc(F)cc2)nc1N [FLUPIRTINE]	4.45

* * *

- Target entity: Bile salt export pump (Homo sapiens, UniProt O95342)
- Measurement protocol: Inhibition of human BSEP expressed in fall armyworm sf9 cell plasma membrane vesicles assessed as reduction in vesicle-associated [3H]-taurocholate transport preincubated for 10 mins prior to ATP addition measured after 15 mins in presence of [3H]-taurocholate by topcount based membrane vesicle transport assay
- Type: ADME
Metric name: IC50

1. CN1CCC[C@H]1c1cccnc1 [NICOTINE]	> 135 µM
2. NC(N)=Nc1nc(CSCCC(N)=NS(N)(=O)=O)cs1 [FAMOTIDINE]	> 135 µM
3. NNC(=O)c1ccncc1 [ISONIAZID]	> 135 µM
4. C=CCN1CC[C@]23c4c5ccc(O)c4O[C@H]2C(=O)CC[C@@]3(O)[C@H]1C5 [NALOXONE]	> 135 µM
5. CNC1=Nc2ccc(Cl)cc2C(c2ccccc2)=[N+]([O-])C1 [CHLORDIAZEPOXIDE]	25 to 45 µM
6. CC(=O)O[C@H]1C[C@@]2(C)[C@@H](C[C@@H](O)[C@H]3[C@@]4(C)CC[C@@H](O)[C@@H](C)[C@@H]4CC[C@@]32C)/C1=C(\CCC=C(C)C)C(=O)O [FUSIDIC ACID]	10.1 µM
7. Cc1noc(NS(=O)(=O)c2ccc(N)cc2)c1C [SULFISOXAZOLE]	> 135 µM
8. CN1CCOC(c2ccccc2)c2ccccc2C1 (centres undefined) [NEFOPAM]	> 135 µM
9. CN(C)C(=O)Oc1cccc([N+](C)(C)C)c1 [NEOSTIGMINE]	> 135 µM
